- Target Or Test System: human receptor tyrosine kinase like orphan receptor 1 (ROR1) (human, UniProt Q01973 30-937)
- Sequence (Q01973 30-937): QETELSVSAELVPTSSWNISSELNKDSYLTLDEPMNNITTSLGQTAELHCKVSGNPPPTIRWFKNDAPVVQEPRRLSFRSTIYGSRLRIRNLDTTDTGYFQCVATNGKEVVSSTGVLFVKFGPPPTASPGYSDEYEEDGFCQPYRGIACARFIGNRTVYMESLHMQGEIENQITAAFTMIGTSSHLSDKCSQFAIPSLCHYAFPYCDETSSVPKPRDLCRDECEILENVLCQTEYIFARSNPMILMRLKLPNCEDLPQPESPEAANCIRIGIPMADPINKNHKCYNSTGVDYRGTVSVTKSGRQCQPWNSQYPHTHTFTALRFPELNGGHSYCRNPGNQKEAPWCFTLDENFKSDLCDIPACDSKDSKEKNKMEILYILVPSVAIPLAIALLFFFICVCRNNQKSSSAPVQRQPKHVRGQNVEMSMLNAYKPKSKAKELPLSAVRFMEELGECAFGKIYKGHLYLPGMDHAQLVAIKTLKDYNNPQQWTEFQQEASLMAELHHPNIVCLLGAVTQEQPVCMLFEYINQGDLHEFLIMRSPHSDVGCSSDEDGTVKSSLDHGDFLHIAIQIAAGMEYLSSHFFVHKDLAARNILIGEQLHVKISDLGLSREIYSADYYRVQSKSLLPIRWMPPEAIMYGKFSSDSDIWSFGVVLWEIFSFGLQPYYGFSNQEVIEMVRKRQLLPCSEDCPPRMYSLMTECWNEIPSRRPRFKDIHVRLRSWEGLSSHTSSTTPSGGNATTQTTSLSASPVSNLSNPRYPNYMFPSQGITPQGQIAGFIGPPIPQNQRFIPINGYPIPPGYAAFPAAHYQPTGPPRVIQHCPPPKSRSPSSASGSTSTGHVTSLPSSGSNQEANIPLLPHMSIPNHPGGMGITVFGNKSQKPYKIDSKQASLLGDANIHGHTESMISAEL
- Measurement Protocol: cell-based or functional assay
Parameter Measured: IC50, cell viability (CellTiter-Glo, 72 h), JHOM1 cells (nM)
Numbers only, in nM.

input: Would you mind telling me what IC50, cell viability (CellTiter-Glo, 72 h), JHOM1 cells value was observed for ADC-E (antibody, human IgG1, kappa, V domains shown, SC-VC-PAB-MMAE bonded via lysine residues of the antibody (chain and positions not stated)) VH: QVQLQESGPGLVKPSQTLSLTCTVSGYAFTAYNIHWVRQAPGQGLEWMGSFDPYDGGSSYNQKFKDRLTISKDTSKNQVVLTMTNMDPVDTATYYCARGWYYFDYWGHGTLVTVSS VL: DIVMTQTPLSLPVTPGEPASISCRASKSISKYLAWYQQKPGQAPRLLIYSGSTLQSGIPPRFSGSGYGTDFTLTINNIESEDAAYYFCQQHDESPYTFGEGTKVEIKR ?
output: 32.9
